// data source = ChEMBL document CHEMBL1156160

Assay: Bioavailability in dog
Type: ADME, organism-based, Canis lupus familiaris
Details: in vivo
Observation type: bioavailability (%)
Expressed in %, but write only the number.

# bioavailability lookup, item CC(C)(C)NC(=O)N[C@H](C(=O)N1C[C@H]2[C@@H]([C@H]1C(=O)NC(CC1CCC1)C(=O)C(N)=O)C2(C)C)C(C)(C)C (stereo partly specified) [BOCEPREVIR]
34

====

System: Hepatitis C virus
Test: Antiviral activity against HCV in human hepatoma cells assessed as inhibition of RNA replication by replicon assay
Format: functional, Hepacivirus hominis
Checkbox rule: EC90 lower than 200 nM = t; EC90 not lower than 200 nM = f.

Confirm or reject: EC90 of CCS(=O)(=O)CC1(NC(=O)N[C@H](C(=O)N2C[C@H]3[C@@H]([C@H]2C(=O)NC(CC2CCC2)C(=O)C(N)=O)C3(C)C)C(C)(C)C)CCCCC1 (some centres not stated) lies strictly below 200 nM
t

Confirm or reject: EC90 of CC(C)(C)[C@H](NC(=O)NC1(Cc2ccccc2)CCCCCC1)C(=O)N1C[C@H]2[C@@H]([C@H]1C(=O)NC(CC1CC1)C(=O)C(N)=O)C2(C)C (some centres not stated) lies strictly below 200 nM
f

Confirm or reject: EC90 of CCS(=O)(=O)CC1(NC(=O)N[C@H](C(=O)N2C[C@H]3[C@@H]([C@H]2C(=O)NC(CC2CC2)C(=O)C(N)=O)C3(C)C)C(C)(C)C)CCCCC1 (some centres not stated) lies strictly below 200 nM
f

Confirm or reject: EC90 of CC(C)(C)[C@H](NC(=O)NC1(Cc2cccc(O)c2)CCCCC1)C(=O)N1C[C@H]2[C@@H]([C@H]1C(=O)NC(CC1CC1)C(=O)C(N)=O)C2(C)C (some centres not stated) lies strictly below 200 nM
t

Confirm or reject: EC90 of CC(C)(C)[C@H](NC(=O)NC1(CS(=O)(=O)Cc2ccco2)CCCCC1)C(=O)N1C[C@H]2[C@@H]([C@H]1C(=O)NC(CC1CC1)C(=O)C(N)=O)C2(C)C (some centres not stated) lies strictly below 200 nM
f
